System: IL-23 induced STAT3 signaling (IL-23 receptor) in HEK-Blue IL-23 cells
TEST METHOD NOTES: Inhibition of IL-23 induced STAT3 signaling in HEK-Blue IL-23 cells, SEAP reporter (Table 9)
Assay type: cell-based
RECORDED CONDITIONS: human IL23 0.25 ng/ml, overnight, read-out: Inhibition of IL-23 induced pSTAT3 (IC50 nM)
Numbered stars: 1 amine (or outer) side, 2 acyl side, 3 side chain; on linkers, the order of the positions; unused ones are H or OH. Bridge positions count the residues as written; N and C are the ends. Square brackets hold non-standard residues; d marks the D form. Peptide text beside a SMILES is read from it. * marks the point of attachment. Lys(Me,(CH2)4NMe(CH2)5CO) = CN(CCCCCC(=O)[*:3])CCCCN(C)CCCC[C@H](N[*:1])C(=O)[*:2]; Lys(Me,(CH2)4NMe(CH2)4CO) = CN(CCCCC(=O)[*:3])CCCCN(C)CCCC[C@H](N[*:1])C(=O)[*:2]; Trp(7-Me) = Cc1cccc2c(C[C@H](N)C(=O)O)c[nH]c12; Trp(1-Me) = Cn1cc(C[C@H](N)C(=O)O)c2ccccc21; NH(2-(3-pyridyl)ethyl) = c1cncc(CCN*)c1; 2Nal = N[C@@H](Cc1ccc2ccccc2c1)C(=O)O; Suberoyl = O=C(CCCCCCC(=O)[*:2])[*:1]; 3Pal = N[C@@H](Cc1cccnc1)C(=O)O; Thp = NC1(C(=O)O)CCOCC1; Me2NCH2CH2 = CN(C)CC*; Aib = CC(C)(N)C(=O)O; Sar = CNCC(=O)O
Listed here: items and their measured IC50.
# unit: nM | format: bare number

Sample answers from the record:
INSERT INTO measurements (molecule, experimental_system, measurement_type, data_value) VALUES
  ('Cc1cccc2c(C[C@@H]3NC(=O)CCCCCCC(=O)NCCCC[C@@H](C(=O)N[C@@H](CC(N)=O)C(=O)N[C@@H](Cc4cccnc4)C(=O)N(C)CC(N)=O)NC(=O)C(C)(C)NC(=O)[C@H](Cc4ccc5ccccc5c4)NC(=O)[C@H](Cc4ccc(OCCN(C)C)cc4)NC(=O)C4(CCOCC4)NC(=O)[C@H](CCC(N)=O)NC3=O)c[nH]c12 [compound 12] ([Trp(7-Me)]Q[Thp]Y(Me2NCH2CH2)[2Nal][Aib]KN[3Pal][Sar]-NH2; linker N-7 via Suberoyl)', 'IL-23 induced STAT3 signaling (IL-23 receptor) in HEK-Blue IL-23 cells', 'IC50', 0.97),
  ('Cc1cccc2c(C[C@@H]3NC(=O)CCCCCN(C)CCCCN(C)CCCC[C@@H](C(=O)NCC(=O)N[C@@H](Cc4cccnc4)C(=O)N(C)CC(N)=O)NC(=O)C(C)(C)NC(=O)[C@H](Cc4ccc5ccccc5c4)NC(=O)[C@H](Cc4ccc(OCCN(C)C)cc4)NC(=O)C4(CCOCC4)NC(=O)[C@H](CCC(N)=O)NC3=O)c[nH]c12 [compound 26] ([Trp(7-Me)]Q[Thp]Y(Me2NCH2CH2)[2Nal][Aib][Lys(Me,(CH2)4NMe(CH2)5CO)]G[3Pal][Sar]-NH2; lactam N-7)', 'IL-23 induced STAT3 signaling (IL-23 receptor) in HEK-Blue IL-23 cells', 'IC50', 2.32),
  ('CC(=O)NCCCC[C@@H]1NC(=O)[C@H](Cc2cn(C)c3ccccc23)NC(=O)CCCCCN(C)CCCCN(C)CCCC[C@@H](C(=O)NCC(=O)NCCc2cccnc2)NC(=O)C(C)(C)NC(=O)[C@H](Cc2ccc3ccccc3c2)NC(=O)[C@H](Cc2ccc(OCCN(C)C)cc2)NC(=O)C2(CCOCC2)NC1=O [compound 23] ([Trp(1-Me)]K(Ac)[Thp]Y(Me2NCH2CH2)[2Nal][Aib][Lys(Me,(CH2)4NMe(CH2)5CO)]G-{NH(2-(3-pyridyl)ethyl)}; lactam N-7)', 'IL-23 induced STAT3 signaling (IL-23 receptor) in HEK-Blue IL-23 cells', 'IC50', 39.2),
  ('Cc1cccc2c(C[C@@H]3NC(=O)CCCCCN(C)CCCCN(C)CCCC[C@@H](C(=O)N[C@@H](CC(N)=O)C(=O)N[C@@H](Cc4cccnc4)C(=O)N(C)CC(N)=O)NC(=O)C(C)(C)NC(=O)[C@H](Cc4ccc5ccccc5c4)NC(=O)[C@H](Cc4ccc(OCCN(C)C)cc4)NC(=O)C4(CCOCC4)NC(=O)[C@H](CCC(N)=O)NC3=O)c[nH]c12 [compound 31] ([Trp(7-Me)]Q[Thp]Y(Me2NCH2CH2)[2Nal][Aib][Lys(Me,(CH2)4NMe(CH2)5CO)]N[3Pal][Sar]-NH2; lactam N-7)', 'IL-23 induced STAT3 signaling (IL-23 receptor) in HEK-Blue IL-23 cells', 'IC50', 0.71);

// next item, IC50 requested
Query: Dear colleague, I am looking for the recorded IC50 of the following molecule: CC(=O)NCCCC[C@@H]1NC(=O)[C@H](Cc2c[nH]c3c(C)cccc23)NC(=O)CCCCN(C)CCCCN(C)CCCC[C@@H](C(=O)N[C@@H](CC(N)=O)C(=O)N[C@@H](Cc2cccnc2)C(=O)N(C)CC(N)=O)NC(=O)C(C)(C)NC(=O)[C@H](Cc2ccc3ccccc3c2)NC(=O)[C@H](Cc2ccc(OCCN(C)C)cc2)NC(=O)C2(CCOCC2)NC1=O [compound 32] ([Trp(7-Me)]K(Ac)[Thp]Y(Me2NCH2CH2)[2Nal][Aib][Lys(Me,(CH2)4NMe(CH2)4CO)]N[3Pal][Sar]-NH2; lactam N-7)
Result: 0.53
